subject.of.test: UniProtKB P43116
Sequence (P43116 whole entry): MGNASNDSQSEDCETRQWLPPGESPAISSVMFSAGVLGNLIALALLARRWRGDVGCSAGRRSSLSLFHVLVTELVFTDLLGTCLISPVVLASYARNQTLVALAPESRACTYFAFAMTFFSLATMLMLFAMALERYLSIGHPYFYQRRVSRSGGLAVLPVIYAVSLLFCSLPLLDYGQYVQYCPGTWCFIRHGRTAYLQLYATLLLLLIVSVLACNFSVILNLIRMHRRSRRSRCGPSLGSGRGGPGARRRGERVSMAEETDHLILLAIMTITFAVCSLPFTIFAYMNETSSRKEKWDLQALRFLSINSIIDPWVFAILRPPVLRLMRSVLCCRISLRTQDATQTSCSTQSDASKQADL
test.name: hEP2 b-Arrestin Assay (PathHunter HEK 293 PTGER2 b-arrestin cells, PGE2 5 μM)
condition.notes: antagonistic activity, beta-arrestin assay, HEK 293 PTGER2 cells, PGE2 5 μM (EC80); read-out: hEP2 b-arr IC50
observation.type: log10 of IC50 (log10 of the value in µM)
// do not treat as linear: log10 of IC50, unit µM

Here are 2 compounds together with their reported answers.
chem.smiles: COc1ccc2c(c1CCNc1cc(-c3cc(C(F)(F)F)c(C(=O)O)s3)ncn1)CCCN2C
subject.of.test: UniProtKB P43116
log10 of IC50: -1.24

chem.smiles: COc1ccc2ccccc2c1CCNc1cc(-c2cc3ccc(C(=O)O)cc3[nH]2)ncn1
subject.of.test: UniProtKB P43116
log10 of IC50: -2.05

*Q* Which value of log10 of IC50 has been reported for CCOc1cc(-c2cc(NCCc3c(OC)ccc4ccccc34)ncn2)ccc1-c1noc(=O)[nH]1 in the records?
*A* -2.30

*Q* Try this compound next: COc1ccc2ccccc2c1CCNc1cc(-c2ccc(C(=O)O)c(OC3CCC3)c2)ncn1
*A* -1.60

*Q* Consider next the compound CCOc1cc(-c2cc(NCCc3c(OC)ccc4ccccc34)ncn2)sc1CCC(=O)O in the same way.
*A* -1.27

*Q* Repeat with CCOc1cc(-c2cc(NCCc3cccc4ncccc34)ncn2)sc1-c1noc(=O)[nH]1
*A* -1.23

*Q* Next record, please: CCOc1cc(-c2cc(NCCc3ccc(OC)c4ccccc34)ncn2)sc1-c1noc(=O)[nH]1
*A* -1.21

*Q* // repeat for CCc1nc(-c2cc(NCCc3c(OC)ccc4ccccc34)ncn2)sc1-c1noc(=O)[nH]1 and report
*A* -1.89

*Q* Param item: CCOc1cc(-c2cc(NCCc3cc(F)cc4sccc34)ncn2)ccc1CC(=O)O
*A* -0.06

*Q* Now the compound CCOc1cc(-c2cc(NCCc3c(OC)ccc4ccccc34)ncn2)ccc1Cc1noc(=O)[nH]1
*A* -1.64

*Q* Moving on to the next compound: CCOc1cc(-c2cc(NCCc3cccc4cccnc34)ncn2)sc1C(=O)O
*A* -0.52
